The measurements presented in this section are drawn from patent US8106055B2.

Field: inhibition at 10 µM. Provide a value for each of the compounds that follow.
# subjectOfTest: human bradykinin 1 receptor (B1R) (Homo sapiens, UniProt P46663)
# Construct: expressed in transfected cells; host or cells: CHO K1 cells
# Sequence (P46663 1-353): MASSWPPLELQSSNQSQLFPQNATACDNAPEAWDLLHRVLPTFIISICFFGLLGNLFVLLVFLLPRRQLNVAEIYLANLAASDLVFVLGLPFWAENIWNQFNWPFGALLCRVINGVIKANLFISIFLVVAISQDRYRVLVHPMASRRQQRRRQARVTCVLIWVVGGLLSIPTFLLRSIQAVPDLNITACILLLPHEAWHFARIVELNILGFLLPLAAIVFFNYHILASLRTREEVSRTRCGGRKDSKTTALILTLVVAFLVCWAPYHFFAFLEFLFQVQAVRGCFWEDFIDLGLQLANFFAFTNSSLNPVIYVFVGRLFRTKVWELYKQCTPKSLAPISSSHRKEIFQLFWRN
# assayText: Functional investigation on the human bradykinin 1 receptor (B1R), Ca2+ FLIPR assay in CHO K1 hB1R cells
# Format: cell-based
# setupConditions: CHO-K1, B1R antagonism human; test substance 10 μM; Ca2+ FLIPR, CHO K1 hB1R cells; read-out: B1R Ant. h [10 μM] % Inhibition
Give bare numbers, in %.

Below: 4 compounds and their reported inhibition at 10 µM.
O=C(COC1CCCN(S(=O)(=O)c2c(Cl)cc(Cl)cc2Cl)C1)NC1CCC(C(c2ccccc2)N2CCCC2)CC1 (centres unmarked)	92
COc1ccc(S(=O)(=O)N2CCCCC2COCC(=O)NCC2CCC(C(c3ccccc3)N(C)C)CC2)cc1OC (centres unmarked)	4
O=C(COCC1CCCN(S(=O)(=O)c2c(Cl)cc(Cl)cc2Cl)C1)NCC1CCC(C(c2ccccc2)N2CCCC2)CC1 (centres unmarked)	50
CN(C)C(c1ccccc1)C1CCC(CNC(=O)COCCN(C)S(=O)(=O)c2c(Cl)cc(Cl)cc2Cl)CC1 (centres unmarked)	104

Lab note: each compound below needs its inhibition at 10 µM filled in.
1. COc1cc(C)c(S(=O)(=O)N2CCCC2COCC(=O)NC2CCC(C(c3ccccc3)N3CCN(C)CC3)CC2)c(C)c1 (centres unmarked)
2. CN(C)C(c1ccccc1)C1CCC(NC(=O)COCCN(C)S(=O)(=O)c2c(F)c(F)c(F)c(F)c2F)CC1 (centres unmarked)
3. O=C(COCC1CCCCN1S(=O)(=O)c1c(Cl)cc(Cl)cc1Cl)NC1CCC(C(CCc2ccccc2)N2CCCCC2)CC1 (centres unmarked)
4. CN(CCOCC(=O)NCC1CCC(C(c2ccccc2)N2CCCC2)CC1)S(=O)(=O)c1c(Cl)cc(C(F)(F)F)cc1Cl (centres unmarked)
5. COc1ccc(S(=O)(=O)N2CCCCC2CCOCC(=O)NCCC2CCC(C(c3cccs3)N(C)C)CC2)cc1 (centres unmarked)
6. O=C(COC1CCN(S(=O)(=O)c2c(Cl)cc(Cl)cc2Cl)C1)NC1CCC(C(CCc2ccccc2)N2CCOCC2)CC1 (centres unmarked)

Result:
1. 103
2. 87
3. 75
4. 60
5. 86
6. 11

Lab note: each compound below needs its inhibition at 10 µM filled in.
1. COc1cc(C)c(S(=O)(=O)N(C)CCOCC(=O)NCC2CCC(C(CCc3ccccc3)N3CCCC3)CC2)c(C)c1 (centres unmarked)
2. COc1ccc(S(=O)(=O)N2CCCC2COCC(=O)NCC2CCC(C(c3cccs3)N(C)C)CC2)cc1 (centres unmarked)
3. CN(C)C(c1ccccc1)C1CCC(NC(=O)COc2ccccc2N(C)S(=O)(=O)c2ccc(Cl)c(Cl)c2)CC1 (centres unmarked)
4. CN(C)C(c1ccccc1)C1CCC(NC(=O)COCCN(C)S(=O)(=O)c2c(Cl)cc(Cl)cc2Cl)CC1 (centres unmarked)

Result:
101
33
74
102
